target: Cellular tumor antigen p53 (Homo sapiens); assay: kinase inhibitors altering GFP-p53 stability in HPV16-positive cells, imaging, known kinase inhibitor set, EGFP/DsRed ratio (AID 1053116); conditions: stronger effect = higher value; measured here: GFP-p53 positive objects count;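 note: cells exposed to compounds for 24 h at 37 °C before reading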
# binarize EGFP object count: threshold 4 inclusive, high side fulfilled, low side not fulfilled

Answered examples (5):
molecule=O=C(Nc1n[nH]c2nc(-c3ccc(O)cc3)c(Br)cc12)C1CC1 discrete_label="not fulfilled"
molecule=O=c1c(Oc2ccc(F)cc2F)cc2cnc(NC3CCOCC3)nc2n1C1CCS(=O)(=O)CC1 discrete_label="not fulfilled"
molecule=Nc1c(C(=O)c2cccc(CCC3(O)CCCC3)c2)cnn1-c1ccc(F)cc1 discrete_label="not fulfilled"
molecule=Nc1nonc1-c1nc2cnccc2n1C1CCCCC1 discrete_label="not fulfilled"
molecule=CN(C)c1ccc2[nH]c(O)c(C=Nc3ccc(S(N)(=O)=O)cc3)c2c1 discrete_label=fulfilled

# ---- query molecule ----
Assess whether reported EGFP object count for CCN1CCC(CC(=O)NC2NNC3NNC(c4cccc(F)c4F)CC32)CC1 (configuration not stated) sits at 4 or higher.
fulfilled

====

assay: polyglutamine-triggered caspase-3 activation inhibitors, cell-based (AID 1583); settings: polyglutamine-induced caspase-3 activation, cell assay; stronger effect = higher value;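 tested at 10 µM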
assay-readout: inhibition (%)
Quick reminder: number only, in %, skip the unit.

Recorded inhibition, per entry:
smiles_notation=CO[C@@]1(NC(=O)Cc2cccs2)C(=O)N2C(C(=O)O)=C(COC(N)=O)CS[C@@H]21 assay_readout=inhibition obs_value=10
smiles_notation=NC(=O)N1c2ccccc2C=Cc2ccccc21 assay_readout=inhibition obs_value=9.92

// moving on: another record for inhibition
// inhibition lookup, key: "COc1ccc2cc(CCC(C)=O)ccc2c1"
10.1

====

tested on: Neuropilin-2 / VEGF-C interaction (human); assay: inhibitors of NRP2–VEGF-C binding, biochemical, microplate binding format, z-score (AID 743281); details: microplate NRP2/VEGF-C binding assay; stronger effect = lower value
# reported z-score; entries follow
// no unit, no text: just the number

Recorded z-score, per entry:
molecule="CCOC(=O)C1=C(COCCN)NC(C)=C(C(=O)OC)C1c1ccccc1Cl (centres undefined)" obs_value=-0.363
molecule="Cc1c(OCC(F)(F)F)ccnc1CS(=O)c1nc2ccccc2[nH]1 (centres undefined)" obs_value=0.0966
molecule="CN1CCCC(n2nc(Cc3ccc(Cl)cc3)c3ccccc3c2=O)CC1 (centres undefined)" obs_value=0.519
molecule=CCCCCCNC(=O)n1cc(F)c(=O)[nH]c1=O obs_value=0.686
molecule=CN(C)CCN(Cc1ccccc1)c1ccccn1 obs_value=-0.192

// z-score lookup, key: "CCCc1nc2c(C)cc(-c3nc4ccccc4n3C)cc2n1Cc1ccc(-c2ccccc2C(=O)O)cc1"
-0.492

// z-score lookup, key: "C[C@]12CCC(=O)C=C1CC[C@@H]1[C@@H]2C(=O)C[C@@]2(C)[C@H]1CC[C@]2(O)C(=O)CO"
0.291

// z-score lookup, key: "CN(C)CCc1c[nH]c2ccc(C[C@H]3COC(=O)N3)cc12"
-0.511

// z-score lookup, key: "O=C(CCCN1CC=C(n2c(=O)[nH]c3ccccc32)CC1)c1ccc(F)cc1"
0.0538

====

test: stimulators of insulin release from INS-1E, primary screen, cell-based, 5 mM glucose, NPC library (AID 1117329); details: rat INS-1E insulin secretion, at 10 µM, stronger effect = higher value; note: reference of the scale not given here
assay-readout: insulin secretion stimulation (%)
Quick reminder: number only, in %, skip the unit.

// insulin secretion stimulation lookup, key: "CCCCCCCCCCCCCCCC[n+]1ccccc1"
46

// insulin secretion stimulation lookup, key: "C[C@@]12CCC[C@H]1[C@@H]1CC[C@H]3C[C@@H](O)CC[C@]3(C)[C@H]1CC2"
-1

// insulin secretion stimulation lookup, key: "COC(=O)c1cc(S(N)(=O)=O)ccc1OC"
-0.15

// insulin secretion stimulation lookup, key: "NCCC(=O)[N-][C@@H](Cc1cnc[nH]1)C(=O)O.[Zn]"
-0.8
